# System: β-catenin nuclear translocation in SH-SY5Y cells
# Method: β-catenin translocation assay
# Type: cell-based
# Assay Setup: Homo sapiens; SH-SY5Y cells, 6 hours
Measure: IC50
Give the number first and the unit second.

[ask] Lab note: need IC50 with β-catenin nuclear translocation in SH-SY5Y cells for entry N#Cc1ccc2[nH]c(O)c(-c3ccc(CN4CCOCC4)cn3)c2c1 [AZ1080, AZD1080, reference compound] , please look it up.
[reply] 3000 nM

* * *

# Experimental Target: GSK3b (GST-full length GSK3b) (Homo sapiens (Human), UniProt P49841)
# Sequence (P49841 whole entry): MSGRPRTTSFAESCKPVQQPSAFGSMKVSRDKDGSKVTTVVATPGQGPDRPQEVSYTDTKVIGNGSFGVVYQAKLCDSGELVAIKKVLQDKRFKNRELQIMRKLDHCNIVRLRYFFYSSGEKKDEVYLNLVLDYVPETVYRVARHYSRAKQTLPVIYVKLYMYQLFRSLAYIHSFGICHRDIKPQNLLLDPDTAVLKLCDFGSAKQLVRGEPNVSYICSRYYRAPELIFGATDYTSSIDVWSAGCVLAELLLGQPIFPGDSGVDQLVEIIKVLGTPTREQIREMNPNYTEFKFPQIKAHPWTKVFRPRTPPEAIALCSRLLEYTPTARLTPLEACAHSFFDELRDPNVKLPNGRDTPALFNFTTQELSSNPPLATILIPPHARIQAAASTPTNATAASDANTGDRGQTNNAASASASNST
# Method: GSK3b TR-FRET kinase assay
# Type: biochemical
# Assay Setup: 1 nM GSK3b, 2 μM ATP, 30 minute preincubation; geometric mean; read-out: GSK3-B TR-FRET BIOCHEMICAL (TR-FRET); GMean; IC50
// IC50 lookup, one value per entry

// worked examples, IC50 included
[[record]]
compound = "CC[C@@]1(c2cccc(-c3cn[nH]c3)c2)C2=C(CC(C)(C)NC2=O)Nc2n[nH]c(C(F)(F)F)c21"
result = "100 to 1000 nM"

[[record]]
compound = "CCC1(c2cccc(-c3ccncc3F)c2)C2=C(CC(C)(C)NC2=O)Nc2n[nH]c(C(F)(F)F)c21 (centres unmarked)"
result = "≤ 100 nM"

[[record]]
compound = "CC[C@@]1(c2cccc(-c3ccncc3C)c2)C2=C(CC(C)(C)NC2=O)Nc2n[nH]c(C)c21"
result = "≤ 100 nM"

[[record]]
compound = "CCC1(c2cccc(-c3cncn3C)c2)C2=C(CC(C)(C)NC2=O)Nc2n[nH]cc21 (centres unmarked)"
result = "≤ 100 nM"

[[record]]
compound = "CC[C@]1(c2ccccc2)C2=C(C[C@@H](C(F)(F)F)CC2=O)Nc2n[nH]cc21"
result = "> 1670 nM"


[ask] So what's the measured IC50 for this one? CC[C@]1(c2cccc(-c3ccncc3C)c2)C2=C(CC(C)(C)NC2=O)Nc2[nH]nc(C(F)(F)F)c21
[reply] ≤ 100 nM

* * *

# Experimental Target: GSK3α (GST-full length GSK3α) (Homo sapiens (Human), UniProt P49840)
# Sequence (P49840 whole entry): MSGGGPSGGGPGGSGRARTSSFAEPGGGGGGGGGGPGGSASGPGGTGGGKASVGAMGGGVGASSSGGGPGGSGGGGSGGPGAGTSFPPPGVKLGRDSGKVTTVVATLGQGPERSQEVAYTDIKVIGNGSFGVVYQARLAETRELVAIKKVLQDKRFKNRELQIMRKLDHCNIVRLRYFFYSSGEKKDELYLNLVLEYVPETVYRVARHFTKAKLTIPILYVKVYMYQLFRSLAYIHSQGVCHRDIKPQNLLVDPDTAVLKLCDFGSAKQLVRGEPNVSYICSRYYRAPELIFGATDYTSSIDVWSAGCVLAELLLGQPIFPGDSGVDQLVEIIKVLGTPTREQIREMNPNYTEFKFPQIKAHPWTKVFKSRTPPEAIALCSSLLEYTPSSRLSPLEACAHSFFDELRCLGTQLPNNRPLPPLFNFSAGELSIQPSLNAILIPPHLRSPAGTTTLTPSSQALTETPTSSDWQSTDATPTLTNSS
# Method: GSK3α TR-FRET kinase assay
# Assay type: biochemical
# Assay Setup: 1 nM GSK3α, 4 μM ATP, 30 minute preincubation, Table 16; read-out: GSK3-A TR-FRET BIOCHEMICAL (TR-FRET); IC50
pIC50: −log10 of the molar value.
// pIC50 lookup, one value per entry

[[record]]
molecule = "CCC1(c2cccc(-c3c(C)cnc4ccccc34)c2)C2=C(CC(C)(C)NC2=O)Nc2n[nH]cc21 (centres unmarked) [Compound 949398]"
result = "≥ 7.00"

[[record]]
molecule = "CCN(c1cccc(C2(CC)C3=C(CC(C)(C)CC3=O)Nc3n[nH]cc32)c1)c1cccnc1C (centres unmarked) [Compound 885367]"
result = "6.00 to 7.00"

[[record]]
molecule = "CCN(C(C)=O)c1cccc(C2(CC)C3=C(CC(C)(C)CC3=O)Nc3n[nH]cc32)c1 (centres unmarked) [Compound 909215]"
result = "6.00 to 7.00"

[[record]]
molecule = "CCC1(c2cccc(N(C)c3ccc(C)nc3)c2)C2=C(CC(C)(C)CC2=O)Nc2n[nH]cc21 (centres unmarked) [Compound 918272]"
result = "6.00 to 7.00"

[[record]]
molecule = "CCC1(c2cccc(C(F)F)c2)C2=C(CC(C)(C)NC2=O)Nc2n[nH]c(C(F)(F)F)c21 (centres unmarked) [Compound 951948]"
result = "≥ 7.00"

[[record]]
molecule = "CC[C@]1(c2cccc(-c3cnn(Cc4ccc(OC)cc4)c3)c2)C2=C(CC(C)(C)NC2=O)Nc2n[nH]cc21 [Compound 951838]"
result = "6.00 to 7.00"

[[record]]
molecule = "CC[C@@]1(c2cccc(N3CCC3(C)C)c2)C2=C(CC(C)(C)CC2=O)Nc2n[nH]cc21 [Compound 913140]"
result = "≥ 7.00"

[[record]]
molecule = "CCC1(c2cccc(N(C)c3ccnc(C)c3)c2)C2=C(CC(C)(C)CC2=O)Nc2n[nH]cc21 (centres unmarked) [Compound 917149]"
result = "6.00 to 7.00"

[[record]]
molecule = "CCC1(c2cccc(-c3cnn4c3CCCC4)c2)C2=C(CC(C)(C)CC2=O)Nc2n[nH]c(C)c21 (centres unmarked) [Compound 884002]"
result = "≥ 7.00"

[[record]]
molecule = "CCC1(c2cccc(-c3ccnc(OC)c3C)c2)C2=C(CC(C)(C)CC2=O)Nc2n[nH]cc21 (centres unmarked) [Compound 932628]"
result = "≥ 7.00"


[ask] So what's the measured pIC50 for this one? CCC1(c2cccc(C3CCOC(C)(C)C3)c2)C2=C(CC(C)(C)CC2=O)Nc2n[nH]cc21 (centres unmarked) [Compound 912088]
[reply] 6.00 to 7.00

[ask] Repeat for the following molecule: CC[C@@]1(c2cccc(-c3ccnc(N(C)C)c3)c2)C2=C(CC(C)(C)CC2=O)Nc2n[nH]c(C)c21 [Compound 913021]
[reply] ≥ 7.00

[ask] Repeat for the following molecule: CC[C@@]1(c2cccc(-c3cnn(-c4cccnc4)c3)c2)C2=C(CC(C)(C)NC2=O)Nc2n[nH]cc21 [Compound 949515]
[reply] < 5.30

[ask] Repeat for the following molecule: CC[C@]1(c2cccc([C@H]3CCOC3)c2)C2=C(CC(C)(C)CC2=O)Nc2n[nH]cc21 [Compound 889558]
[reply] ≥ 7.00

[ask] Repeat for the following molecule: CC1(C)CC(=O)C2=C(C1)Nc1n[nH]cc1C21CN(Cc2ccccc2)C1 [Compound 929436]
[reply] < 5.30

[ask] Repeat for the following molecule: CCC1(c2cccc(-c3cnn(C)c3)c2)C2=C(CC(C)(C)CC2=O)Nc2n[nH]c(C)c21 (centres unmarked) [Compound 913031]
[reply] ≥ 7.00

[ask] Repeat for the following molecule: CC[C@]1(c2cccc(-c3ccnc(OC)c3Cl)c2)C2=C(CC(C)(C)NC2=O)Nc2n[nH]cc21 [Compound 952754]
[reply] ≥ 7.00

[ask] Repeat for the following molecule: CC[C@@]1(c2cccc(-c3cnn(Cc4cccc(C(F)(F)F)c4)c3)c2)C2=C(CC(C)(C)NC2=O)Nc2n[nH]cc21 [Compound 949513]
[reply] < 5.30

[ask] Repeat for the following molecule: CCC1(c2cccc(-c3cnn(Cc4ccc(C(F)(F)F)cc4)c3)c2)C2=C(CC(C)(C)NC2=O)Nc2n[nH]cc21 (centres unmarked) [Compound 951849]
[reply] ≥ 7.00

[ask] Repeat for the following molecule: CC[C@@]1(c2cccc(C3CCC3)c2)C2=C(CC(C)(C)CC2=O)Nc2n[nH]cc21 [Compound 949521]
[reply] ≥ 7.00

[ask] Repeat for the following molecule: CCC1(c2cccc(S(=O)(=O)CCOC)c2)C2=C(CC(C)(C)CC2=O)Nc2n[nH]cc21 (centres unmarked) [Compound 918271]
[reply] ≥ 7.00

[ask] Repeat for the following molecule: O=C1CC(c2ccccc2)CC2=C1C1(CCOCC1)c1c[nH]nc1N2 (centres unmarked) [Compound 893309]
[reply] 6.00 to 7.00

[ask] Repeat for the following molecule: CCC1(c2cccc(-c3ccnn3C)c2)C2=C(CC(C)(C)CC2=O)Nc2n[nH]cc21 (centres unmarked) [Compound 911992]
[reply] ≥ 7.00

[ask] Repeat for the following molecule: CC[C@]1(c2cccc(-c3ccncc3F)c2)C2=C(CC(C)(C)NC2=O)Nc2n[nH]c(Cl)c21 [Compound 949756]
[reply] < 5.30

[ask] Repeat for the following molecule: CC[C@]1(c2cccc(-c3cnn(C(C)C)c3F)c2)C2=C(CC(C)(C)NC2=O)Nc2n[nH]cc21 [Compound 950061]
[reply] 6.00 to 7.00

[ask] Repeat for the following molecule: CCC1(c2cccc(C(F)(F)F)c2)C2=C(CCN(c3cn(C)nc3C)C2=O)Nc2n[nH]cc21 (centres unmarked) [Compound 949641]
[reply] < 5.30

[ask] Repeat for the following molecule: CCC1(c2cccc(Oc3cncnc3)c2)C2=C(CC(C)(C)CC2=O)Nc2n[nH]cc21 (centres unmarked) [Compound 917212]
[reply] ≥ 7.00

[ask] Repeat for the following molecule: CCC1(c2cccc(C(F)(F)F)c2)C2=C(CC(C)N(c3cnc(OC)nc3)C2=O)Nc2n[nH]cc21 (centres unmarked) [Compound 949351]
[reply] ≥ 7.00

[ask] Repeat for the following molecule: CCC1(c2cccc(-c3ccnc(OC(F)F)c3)c2)C2=C(CC(C)(C)CC2=O)Nc2n[nH]cc21 (centres unmarked) [Compound 932629]
[reply] ≥ 7.00

* * *

# Experimental Target: GSK3α (GST-full length GSK3α) (Homo sapiens (Human), UniProt P49840)
# Method: GSK3α TR-FRET kinase assay
# Type: biochemical
# Assay Setup: 1 nM GSK3α, 4 μM ATP, 30 minute preincubation, Table 16; read-out: GSK3-A TR-FRET BIOCHEMICAL (TR-FRET)
// IC50 lookup, one value per entry

[[record]]
molecule = "CC1(C)CC(=O)C2=C(C1)Nc1n[nH]cc1C21CCC(C(=O)N2CCCC2)CC1 (stereo not drawn) [Compound 945396]"
result = "100 to 1000 nM"


[ask] So what's the measured IC50 for this one? CC1(C)CC(=O)C2=C(C1)Nc1n[nH]cc1C21CCCN(S(=O)(=O)C2CC2)CC1 (stereo not drawn) [Compound 917137]
[reply] ≤ 100 nM

[ask] Repeat for the following molecule: CCC1(c2cccc(C3CN(C(C)=O)C3)c2)C2=C(CC(C)(C)CC2=O)Nc2n[nH]cc21 (stereo not drawn) [Compound 948779]
[reply] 1000 to 5000 nM

[ask] Repeat for the following molecule: CCC1(c2cccc(Oc3ncccn3)c2)C2=C(CC(C)(C)CC2=O)Nc2n[nH]cc21 (stereo not drawn) [Compound 947808]
[reply] ≤ 100 nM

[ask] Repeat for the following molecule: CC[C@@]1(c2ccccc2)C2=C(C[C@@]3(CCNC3=O)CC2=O)Nc2n[nH]cc21 [Compound 950161]
[reply] 1000 to 5000 nM

[ask] Repeat for the following molecule: CC[C@]1(c2cccc(-c3ccncc3)c2)C2=C(Nc3n[nH]cc31)[C@@H](F)C(C)(C)CC2=O [Compound 959344]
[reply] > 5000 nM

[ask] Repeat for the following molecule: CCC1(c2cccc(-c3c(F)cncc3OC)c2)C2=C(Nc3n[nH]cc31)C(F)C(C)(C)CC2=O (stereo not drawn) [Compound 948546]
[reply] ≤ 100 nM
